pIC50: −log10 of the molar value.
Here we gather pIC50 data for UniProt P78536 reported by several publications.

COc1cc(N2CCN(C(=O)CC[C@@]3(C)NC(=O)NC3=O)CC2)cc(OC)c1F
< 7.00
CCCC(Cc1ccc(OCCN2CCOCC2)cc1)(C(=O)NO)S(=O)(=O)c1ccc(OC)cc1 (centres unmarked)
7.35
CCc1cc(N2CCN(C(=O)[C@@H](C)C[C@@]3(COC)NC(=O)NC3=O)C[C@@H]2C)cc(OC)c1Cl (mixture of isomers)
< 7.00
COc1cc(OC)cc(N2CCN(C(=O)CCC3(C)NC(=O)NC3=O)C[C@@H]2C)c1 (some centres unmarked)
< 7.00

Kindly state the measured pIC50 obtained for O=C1NC(=O)C(Cn2cccc(CO)c2=O)(c2ccc(Cc3ccccc3)cc2)N1 (centres unmarked) with UniProt P78536. 6.00 to 7.00

###

pIC50: −log10 of the molar value.
Here we gather pIC50 data for UniProt P78536 reported by several publications.

A selection of reference data follows.
COc1cc(N2CCN(C(=O)CCC3(C)NC(=O)NC3=O)CC2)cc(OC)c1Cl (stereo not shown)
< 7.00
O=C(NO)[C@H]1CN(S(=O)(=O)Cc2ccncc2)CCN1S(=O)(=O)c1cc(F)c(Oc2ccc(Cl)cc2)c(F)c1
> 7.30
C=Cc1ccc(C2(Cn3cccc(C)c3=O)NC(=O)NC2=O)cc1 (stereo not shown)
> 7.00

Turning now to a further compound:
State the recorded pIC50 for this entry: "COc1cc(N2CCN(C(=O)CC[C@@]3(C)NC(=O)NC3=O)C[C@@H]2C)cc(F)c1Cl" < 7.00

###

Here we gather IC50 data for TACE (Homo sapiens (Human), UniProt P78536) reported by several publications.

Cc1cccn(CC2(c3ccc4c(c3)CCCC4)NC(=O)NC2=O)c1=O (centres unmarked)
< 100 nM
CCCCCC(CS(=O)(=O)N1CCc2ccccc2C1)N(O)C=O (centres unmarked)
28 nM
O=CN(O)C(CO)CS(=O)(=O)N1CCc2cc(Cl)c(Cl)cc2C1 (centres unmarked)
239 nM
COc1cc(N2CCN(C(=O)CCC3(c4cccc(C)n4)NC(=O)NC3=O)C[C@@H]2C)cc(F)c1F (some centres unmarked)
> 100 nM
Cc1cccn(CC2(c3ccc(CC(C)C)cc3)NC(=O)NC2=O)c1=O (centres unmarked)
< 100 nM
COc1cc(N2CCN(C(=O)CC[C@H]3NC(=O)NC3=O)C[C@@H]2C)cc(Cl)c1F
> 100 nM

State the recorded IC50 for this entry: "CC#CCOc1ccc(S(=O)(=O)CC2(C(=O)NO)CCN(C(=O)OC(C)(C)C)CC2)cc1" 33 nM

State the recorded IC50 for this entry: "CC#CCOc1ccc(S(=O)(=O)C2(C(=O)NO)CCN(Cc3ccc(OCCN4CCCCC4)cc3)CC2)cc1" 136 nM

State the recorded IC50 for this entry: O=C1NC(=O)C(Cn2cccc(Cl)c2=O)(c2ccc(F)c(F)c2)N1 (centres unmarked) < 100 nM

State the recorded IC50 for this entry: COc1ccc(OC(F)(F)F)cc1C1(Cn2cccc(C)c2=O)NC(=O)NC1=O (centres unmarked) 100 to 1000 nM

State the recorded IC50 for this entry: O=C1NC(=O)C(Cn2cccc(CO)c2=O)(c2ccc(F)c(F)c2)N1 (centres unmarked) 100 to 1000 nM
